The measurements presented in this section are drawn from patent US7122554B2.

system-name: human recombinant PDE5 (Homo sapiens)
protocol-details: Inhibitory effect on cGMP-PDE (PDE5 IC50, one-step assay)
condition-summary: human recombinant PDE5, 0.15 μM 8-[H3]-cGMP, 30 minutes incubation

>  <compound>
S=C(NCc1ccccc1)N1CCc2c([nH]c3ccccc23)C1c1ccc2c(c1)OCO2 (stereo not drawn)

>  <IC50 [nM]>
51

$$$$
>  <compound>
Cc1ccc(CNC(=S)N2CCc3c([nH]c4ccccc34)[C@H]2c2ccc3c(c2)OCO3)cc1C

>  <IC50 [nM]>
30

$$$$
>  <compound>
O=C(NC1CCCCC1)N1CCc2c([nH]c3ccccc23)C1c1ccc2c(c1)OCO2 (stereo not drawn)

>  <IC50 [nM]>
850

$$$$
>  <compound>
Fc1cccc(CNC(=S)N2CCc3c([nH]c4ccccc34)[C@H]2c2ccc3c(c2)OCO3)c1

>  <IC50 [nM]>
75

$$$$
>  <compound>
COC(=O)N1CCc2c([nH]c3ccccc23)C1c1ccccc1 (stereo not drawn)

>  <IC50 [nM]>
1

$$$$
>  <compound>
O=C(O)c1cccc(CNC(=S)N2CCc3c([nH]c4ccccc34)[C@H]2c2ccc3c(c2)OCO3)c1

>  <IC50 [nM]>
469

$$$$

* * *

>  <molecule>
O=S(=O)(/C=C/c1ccccc1)N1CCc2c([nH]c3ccccc23)[C@H]1c1ccc2c(c1)OCO2 [Example 41b]

>  <melting point>
193 to 194 °C

$$$$
>  <molecule>
S=C(NCc1ccc(Cl)cc1Cl)N1CCc2c([nH]c3ccccc23)[C@H]1c1ccc2c(c1)OCO2

>  <melting point>
124 to 127 °C

$$$$
>  <molecule>
S=C(NCc1cccc(Cl)c1)N1CCc2c([nH]c3ccccc23)[C@H]1c1ccc2c(c1)OCO2

>  <melting point>
189 to 191 °C

$$$$
>  <molecule>
O=C(O)c1cccc(CNC(=S)N2CCc3c([nH]c4ccccc34)[C@H]2c2ccc3c(c2)OCO3)c1

>  <melting point>
218 to 220 °C

$$$$
>  <molecule>
S=C(NCc1ccccc1)N1CCc2c([nH]c3ccccc23)[C@H]1c1ccc2c(c1)OCO2

>  <melting point>
205 to 207 °C

$$$$
>  <molecule>
S=C(NCc1cccc2ccccc12)N1CCc2c([nH]c3ccccc23)[C@H]1c1ccc2c(c1)OCO2

>  <melting point>
111 to 113 °C

$$$$
